Please respond with reported pIC50 for every item in the list.
Biological target: Inhibitor of nuclear factor kappa-B kinase subunit beta (Homo sapiens, UniProt O14920)
Sequence (O14920 whole entry): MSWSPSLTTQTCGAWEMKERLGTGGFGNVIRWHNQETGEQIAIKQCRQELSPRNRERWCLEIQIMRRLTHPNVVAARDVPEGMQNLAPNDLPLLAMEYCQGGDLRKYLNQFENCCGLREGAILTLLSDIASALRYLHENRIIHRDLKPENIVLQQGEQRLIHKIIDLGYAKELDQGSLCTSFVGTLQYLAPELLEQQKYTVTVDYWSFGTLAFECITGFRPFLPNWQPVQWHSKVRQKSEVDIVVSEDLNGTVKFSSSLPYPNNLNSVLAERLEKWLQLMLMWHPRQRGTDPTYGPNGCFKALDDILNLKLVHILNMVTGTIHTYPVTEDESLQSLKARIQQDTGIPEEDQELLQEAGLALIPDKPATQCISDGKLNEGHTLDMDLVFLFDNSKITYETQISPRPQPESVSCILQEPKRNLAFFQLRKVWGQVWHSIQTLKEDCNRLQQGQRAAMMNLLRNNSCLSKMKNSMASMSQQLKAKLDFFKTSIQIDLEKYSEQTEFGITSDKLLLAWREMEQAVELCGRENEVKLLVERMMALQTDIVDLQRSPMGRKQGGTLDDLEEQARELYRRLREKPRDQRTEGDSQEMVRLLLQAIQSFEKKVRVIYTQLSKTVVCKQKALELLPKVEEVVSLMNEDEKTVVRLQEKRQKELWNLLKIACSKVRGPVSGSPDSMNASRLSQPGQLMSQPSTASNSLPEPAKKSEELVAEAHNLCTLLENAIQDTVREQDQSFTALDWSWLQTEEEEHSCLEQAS
Test: Inhibition of human recombinant C-terminal FLAG-epitope-tagged IKK2 expressed in baculovirus using biotinylated IkappaBalpha peptide as substrate assessed as decrease in [gamma-33P]-ATP incorporation in substrate after 30 mins by scintillation counting method
pIC50: −log10 of the molar value.

Prompt: Request the reported pIC50 associated with CS(=O)(=O)Nc1ccc2c(c1)-c1c(c(C(N)=O)nn1-c1ccc(S(N)(=O)=O)cc1)CC2
Completion: ≥ 6.00

Prompt: And NC(=O)c1nn(-c2ccc3c(c2)OCO3)c2c1CCc1ccc(NC(=O)c3cc(Cl)ncc3Cl)cc1-2 ?
Completion: ≥ 6.00

Prompt: Further, for NC(=O)c1nn(-c2ccc(S(N)(=O)=O)cc2)c2c1CCc1ccc(NC(=O)c3ccccc3C(F)(F)F)cc1-2 ?
Completion: ≥ 6.00

Prompt: Moving on to the next molecule: COc1ccc(S(=O)(=O)Nc2ccc3c(c2)-c2c(c(C(N)=O)nn2-c2ccc(S(N)(=O)=O)cc2)CC3)cc1OC
Completion: 4.00 to 5.00

Prompt: Now try CC1(C)OCC(COc2ccc(-n3nc(C(N)=O)c4c3-c3cc(NC(=O)c5ccc(S(C)(=O)=O)cc5Cl)ccc3CC4)cc2)O1 (configuration not stated) .
Completion: 5.00 to 6.00

Prompt: Likewise for C[C@@H]1CN(c2cc(C(=O)Nc3ccc4c(c3)-c3c(c(C(N)=O)nn3-c3ccc(F)cc3)CC4)c(Cl)cn2)C[C@H](C)N1 ?
Completion: ≥ 6.00

Prompt: Here is the next molecule: NC(=O)c1nn(-c2ccc(S(N)(=O)=O)cc2)c2c1CCc1ccc(NS(=O)(=O)c3cccc4cnccc34)cc1-2
Completion: 5.00 to 6.00

###

Please provide measured IC50 for the entries that follow.
molecular target: Inhibitor of nuclear factor kappa-B kinase subunit beta (Homo sapiens, UniProt O14920); experiment: Inhibition of human recombinant C-terminal FLAG-epitope-tagged IKK2 expressed in baculovirus using biotinylated IkappaBalpha peptide as substrate assessed as decrease in [gamma-33P]-ATP incorporation in substrate after 30 mins by scintillation counting method

Prompt: // lookup IC50 for CC1Cc2c(C(N)=O)nn(-c3ccc(N)cc3F)c2-c2cc(NC(=O)c3ccncc3Cl)ccc21 (stereo not drawn)
Completion: ≤ 1000 nM

Prompt: Try this compound next: NC(=O)c1nn(-c2ccc(S(N)(=O)=O)cc2)c2c1CCc1ccc(NC(=O)C3CCCC3)cc1-2
Completion: 1000 to 10000 nM

Prompt: What do you have for NC(=O)c1nn(-c2cc(F)c(N)cc2F)c2c1CCc1ccc(NC(=O)c3ccncc3Cl)cc1-2 ?
Completion: ≤ 1000 nM

Prompt: Subsequent entry: Cc1cc(Cl)ncc1C(=O)Nc1ccc2c(c1)-c1c(c(C(N)=O)nn1-c1ccc3c(c1)OCO3)CC2
Completion: ≤ 1000 nM

Prompt: Now try CN(C)S(=O)(=O)c1ccc(-n2nc(C(N)=O)c3c2-c2cc(NC(=O)c4cccc(Cl)c4)ccc2CC3)cc1 .
Completion: 1000 to 10000 nM

Prompt: Try CN(C)S(=O)(=O)c1ccc(-n2nc(C(N)=O)c3c2-c2cc(N)ccc2CC3)cc1 next.
Completion: 1000 to 10000 nM

Prompt: Can you handle NC(=O)c1nn(-c2ccc(S(N)(=O)=O)cc2)c2c1CCc1ccc(NC(=O)Nc3ccccc3)cc1-2 next?
Completion: 1000 to 10000 nM

Prompt: Also, CCS(=O)(=O)c1ccc(-n2nc(C(N)=O)c3c2-c2cc(NS(C)(=O)=O)ccc2CC3)cc1 please.
Completion: 1000 to 10000 nM

###

target: Inhibitor of nuclear factor kappa-B kinase subunit beta (Homo sapiens); experiment: Inhibition of human recombinant C-terminal FLAG-epitope-tagged IKK2 expressed in baculovirus using biotinylated IkappaBalpha peptide as substrate assessed as decrease in [gamma-33P]-ATP incorporation in substrate after 30 mins by scintillation counting method
pIC50: −log10 of the molar value.
Recorded Metric: pIC50

Prompt: Which pIC50 value belongs to NC(=O)c1nn(-c2ccc3c(c2)OCO3)c2c1CCc1ccc(NC(=O)c3ccoc3)cc1-2 ?
Completion: 5.00 to 6.00

Prompt: // same read-out, input: NC(=O)c1nn(-c2ccc(CCCO)cc2)c2c1CCc1ccc(NC(=O)c3cccnc3Cl)cc1-2
Completion: ≥ 6.00

Prompt: Note, next up: NC(=O)c1nn(-c2ccc(S(N)(=O)=O)cc2)c2c1CCc1ccc(NC(=O)c3ccncc3)cc1-2
Completion: ≥ 6.00

Prompt: Same question, NC(=O)c1nn(-c2ccc(F)cc2)c2c1CCc1ccc(NC(=O)c3cc(CCN4CCOCC4)ncc3Cl)cc1-2 this time
Completion: ≥ 6.00

Prompt: Now consider N#Cc1cc(C(=O)Nc2ccc3c(c2)-c2c(c(C(N)=O)nn2-c2ccc(F)cc2)CC3)c(Cl)cn1 .
Completion: ≥ 6.00

Prompt: Try the compound NC(=O)c1nn(-c2ccc(S(N)(=O)=O)cc2)c2c1CCc1ccc(NC(=O)c3cccc(Cl)c3)cc1-2
Completion: ≥ 6.00

Prompt: Then this compound: N#Cc1cc(C(=O)Nc2ccc3c(c2)-c2c(c(C(N)=O)nn2-c2ccc4c(c2)OCO4)CC3)c(Cl)cn1
Completion: ≥ 6.00

Prompt: And CS(=O)(=O)c1ccc(-n2nc(C(N)=O)c3c2-c2cc(NC(=O)C4CCC4)ccc2CC3)cc1 ?
Completion: 5.00 to 6.00

Prompt: Okay, and Cc1ccc(S(=O)(=O)Nc2ccc3c(c2)-c2c(c(C(N)=O)nn2-c2ccc(S(N)(=O)=O)cc2)CC3)cc1 ?
Completion: 4.00 to 5.00

Prompt: Repeat with NC(=O)c1nn(-c2ccc(S(N)(=O)=O)cc2)c2c1CCc1ccc(NS(=O)(=O)C(F)(F)F)cc1-2
Completion: 4.00 to 5.00

Prompt: Okay, and C[C@@H](N)C(=O)Nc1ccc2c(c1)-c1c(c(C(N)=O)nn1-c1ccc(S(N)(=O)=O)cc1)CC2 ?
Completion: 5.00 to 6.00

Prompt: What do you have for CS(=O)(=O)c1ccc(-n2nc(C(N)=O)c3c2-c2cc(NC(=O)c4cc(N=[N+]=[N-])ccc4[N+](=O)O)ccc2CC3)cc1 ?
Completion: ≥ 6.00

Prompt: What about CC1(C)OCC(COc2ccc(-n3nc(C(N)=O)c4c3-c3cc(NC(=O)c5ccccc5Cl)ccc3CC4)cc2)O1 (stereo unspecified) ?
Completion: ≥ 6.00

Prompt: Repeat with CN1CCN(c2cc(C(=O)Nc3ccc4c(c3)-c3c(c(C(N)=O)nn3-c3ccc(S(C)(=O)=O)cc3)CC4)c(Cl)cn2)CC1
Completion: ≥ 6.00

Prompt: Next entry: CN1CCN(c2ncc(Cl)c(C(=O)Nc3ccc4c(c3)-c3c(c(C(N)=O)nn3-c3ccc(F)cc3)CC4)n2)CC1
Completion: ≥ 6.00

Prompt: Another compound to look at: CC(O)c1ccc(-n2nc(C(N)=O)c3c2-c2cc(NC(=O)c4cccnc4Cl)ccc2CC3)cc1 (stereo unspecified)
Completion: ≥ 6.00

###

target: Inhibitor of nuclear factor kappa-B kinase subunit beta (Homo sapiens, UniProt O14920); assay: Inhibition of human recombinant C-terminal FLAG-epitope-tagged IKK2 expressed in baculovirus using biotinylated IkappaBalpha peptide as substrate assessed as decrease in [gamma-33P]-ATP incorporation in substrate after 30 mins by scintillation counting method
pIC50: −log10 of the molar value.
Assign pIC50 to each entry below.

Prompt: # pIC50 lookup, item NC(=O)c1nn(-c2ccc(F)cc2)c2c1CCc1ccc(NC(=O)c3cc(N4CCN(CCO)CC4)ncc3Cl)cc1-2
Completion: ≥ 6.00

Prompt: # iterate: NC(=O)c1nn(-c2ccc(-c3cccc(C(=O)O)c3)cc2)c2c1CCc1ccc(NC(=O)c3ccccc3Cl)cc1-2
Completion: 5.00 to 6.00

Prompt: Then NC(=O)c1nn(-c2ccc(S(N)(=O)=O)cc2)c2c1CCc1ccc([N+](=O)[O-])cc1-2 ?
Completion: < 4.00

Prompt: What would you report for NC(=O)c1nn(-c2ccc(F)c(F)c2)c2c1CCc1ccc(NC(=O)c3cccc(Cl)c3Cl)cc1-2 ?
Completion: 5.00 to 6.00

Prompt: Thanks! And CN(C)C(=O)/C=C/c1ccc(-n2nc(C(N)=O)c3c2-c2cc(NC(=O)c4cccnc4Cl)ccc2CC3)cc1 ?
Completion: 5.00 to 6.00

Prompt: Request: Cc1ccccc1C(=O)Nc1ccc2c(c1)-c1c(c(C(N)=O)nn1-c1ccc3c(c1)OCO3)CC2
Completion: 5.00 to 6.00

Prompt: Check NC(=O)c1nn(-c2ccc(F)cc2)c2c1CCc1ccc(NC(=O)c3ccncc3)cc1-2 too.
Completion: 5.00 to 6.00

Prompt: Let us now turn to CS(=O)(=O)Nc1ccc2c(c1)-c1c(c(C(N)=O)nn1-c1ccc(F)cc1)CC2
Completion: 5.00 to 6.00

Prompt: What do you have for CC(=O)/C=C/c1ccc(-n2nc(C(N)=O)c3c2-c2cc(NC(=O)c4ccccc4Cl)ccc2CC3)cc1 ?
Completion: ≥ 6.00

Prompt: Next molecule up: NC(=O)c1nn(-c2ccc(S(N)(=O)=O)cc2)c2c1CCc1ccc(NCc3ccccc3)cc1-2
Completion: 5.00 to 6.00

Prompt: Query C[S+]([O-])c1ccc(Cl)c(C(=O)Nc2ccc3c(c2)-c2c(c(C(N)=O)nn2-c2ccc(F)cc2)CC3)c1 (configuration not stated) next
Completion: ≥ 6.00

Prompt: Again, but for NC(=O)c1nn(-c2ccc(S(N)(=O)=O)cc2)c2c1CCc1ccc(NC(=O)c3cccc(C(F)(F)F)c3)cc1-2
Completion: 5.00 to 6.00

Prompt: Thanks! And C[C@H](N)C(=O)Nc1ccc2c(c1)-c1c(c(C(N)=O)nn1-c1ccc(S(N)(=O)=O)cc1)CC2 ?
Completion: 5.00 to 6.00

Prompt: Same question for NC(=O)c1nn(-c2ccc(F)cc2)c2c1CCc1ccc(NC(=O)c3ccnc(N4CCOCC4)c3)cc1-2 please.
Completion: ≥ 6.00

Prompt: How about NC(=O)c1nn(-c2ccc(F)cc2)c2c1CCc1ccc(NC(=O)c3cc(-c4ccncc4)ncc3Cl)cc1-2 ?
Completion: ≥ 6.00

Prompt: And the next one, COc1ccc([N+](=O)[O-])c(C(=O)Nc2ccc3c(c2)-c2c(c(C(N)=O)nn2-c2ccc4c(c2)OCO4)CC3)c1 ?
Completion: 5.00 to 6.00

Prompt: Same lookup for NC(=O)c1nn(-c2ccc(S(N)(=O)=O)cc2)c2c1CCc1ccc(NC(=O)c3ccc(Cl)cc3)cc1-2 , please.
Completion: ≥ 6.00
